pIC50: −log10 of the molar value.
Literature-derived pIC50 for Vascular endothelial growth factor receptor 2 (Homo sapiens) follows.

QUERY: Need pIC50 of CC1(C)c2cc(NS(C)(=O)=O)ccc2C(=O)c2c1oc1cc(C#Cc3cc(OCC4CC4)ccn3)ccc21 , thanks.
RESULT: < 6.00

QUERY: # repeat for Cc1nnsc1C1=NNC(=O)/C1=C\c1c[nH]c2ccc(Cl)cc12
RESULT: < 6.52

QUERY: # repeat for OCCCNc1ccc(-c2cncc(Nc3cccc(Cl)c3)n2)nc1
RESULT: < 5.00

QUERY: # repeat for Cc1ccc(C(=O)Nc2ccon2)cc1NC(=O)c1cnn(-c2ccccc2F)c1N
RESULT: < 4.30
